Source listed as the supplement of paper PMC10307832.

# Test system: HOP-62
# protocolDescription: relative viability (nuclei count vs DMSO), 5 days (fraction); higher = more cells survive
# experimentalConditions: first compound 2.53 µM
# class assignment by measured relative viability: LOW = under 0.4, MID = from 0.4 up to 0.8, HIGH = 0.8 and over

-- ask Using the reported relative viability, which band applies to Oc1nc(-c2ccc(C(F)(F)F)cc2)nc2c1CSCC2 [XAV939] + CC(=O)c1c(C)c2cnc(Nc3ccc(N4CCNCC4)cn3)nc2n(C2CCCC2)c1=O [Palbociclib] (partner 0.5 µM) ?
-- reply LOW

-- ask For Oc1nc(-c2ccc(C(F)(F)F)cc2)nc2c1CSCC2 [XAV939] + CS(=O)(=O)N1CCN(Cc2cc3nc(-c4cccc5[nH]ncc45)nc(N4CCOCC4)c3s2)CC1 [Pictilisib] (partner 1 µM) , which relative viability bin applies?
-- reply MID

-- ask Classify this compound: Oc1nc(-c2ccc(C(F)(F)F)cc2)nc2c1CSCC2 [XAV939] + CCNC(=O)c1noc(-c2cc(C(C)C)c(O)cc2O)c1-c1ccc(CN2CCOCC2)cc1 [Luminespib] (partner 0.01 µM)
-- reply MID

-- ask Field: class (relative viability) — entry: Oc1nc(-c2ccc(C(F)(F)F)cc2)nc2c1CSCC2 [XAV939] + O=C(c1cc(Cc2n[nH]c(=O)c3ccccc23)ccc1F)N1CCN(C(=O)C2CC2)CC1 [Olaparib] (partner 8 µM)
-- reply LOW

-- ask Hello team, could you let me know which band the following compound falls into: C=C1C(=O)O[C@@H](CCCCCCCC)[C@@H]1C(=O)O [C-75] + C[C@]1(O)C[C@@H](c2nc(-c3ccc4ccc(-c5ccccc5)nc4c3)c3c(N)nccn32)C1 [Linsitinib] (partner 1 µM)
-- reply HIGH

-- ask Looking at C=C1C(=O)O[C@@H](CCCCCCCC)[C@@H]1C(=O)O [C-75] + CS(=O)(=O)N1CCN(Cc2cc3nc(-c4cccc5[nH]ncc45)nc(N4CCOCC4)c3s2)CC1 [Pictilisib] (partner 1 µM) , which class would you pick?
-- reply MID

-- ask The entry to classify is Oc1nc(-c2ccc(C(F)(F)F)cc2)nc2c1CSCC2 [XAV939] + COc1cc2c(Oc3ccc(NC(=O)C4(C(=O)Nc5ccc(F)cc5)CC4)cc3F)ccnc2cc1OCCCN1CCOCC1 [Foretinib] (partner 0.25 µM) ; which class holds it?
-- reply HIGH

-- ask Class label required: C=C1C(=O)O[C@@H](CCCCCCCC)[C@@H]1C(=O)O [C-75] + CC(=O)Nc1cccc(-n2c(=O)n(C3CC3)c(=O)c3c(Nc4ccc(I)cc4F)n(C)c(=O)c(C)c32)c1 [Trametinib] (partner 0.02 µM)
-- reply LOW

-- ask # bin label for Oc1nc(-c2ccc(C(F)(F)F)cc2)nc2c1CSCC2 [XAV939] + CC1(C)CCC(c2ccc(Cl)cc2)=C(CN2CCN(c3ccc(C(=O)NS(=O)(=O)c4ccc(N[C@H](CCN5CCOCC5)CSc5ccccc5)c(S(=O)(=O)C(F)(F)F)c4)cc3)CC2)C1 [Navitoclax] (partner 0.5 µM)
-- reply HIGH

-- ask Pick a category. Item: C=C1C(=O)O[C@@H](CCCCCCCC)[C@@H]1C(=O)O [C-75] + Cc1nc(NC(=O)N2CCC[C@H]2C(N)=O)sc1-c1ccnc(C(C)(C)C(F)(F)F)c1 [Alpelisib] (partner 2 µM)
-- reply HIGH

-- ask Record Oc1nc(-c2ccc(C(F)(F)F)cc2)nc2c1CSCC2 [XAV939] + N=C(N)NC(=N)NCCc1ccccc1 [Phenformin] (partner 250 µM) — which class?
-- reply MID

-- ask // bin(item) where item = Oc1nc(-c2ccc(C(F)(F)F)cc2)nc2c1CSCC2 [XAV939] + CC(C)C[C@H](NC(=O)[C@H](Cc1ccccc1)NC(=O)c1cnccn1)B(O)O [Bortezomib] (partner 0.002 µM)
-- reply LOW

-- ask Which class holds Oc1nc(-c2ccc(C(F)(F)F)cc2)nc2c1CSCC2 [XAV939] + CC(=O)Nc1cccc(-n2c(=O)n(C3CC3)c(=O)c3c(Nc4ccc(I)cc4F)n(C)c(=O)c(C)c32)c1 [Trametinib] (partner 0.02 µM) ?
-- reply LOW

-- ask Lab note: sort Oc1nc(-c2ccc(C(F)(F)F)cc2)nc2c1CSCC2 [XAV939] + C[C@]1(O)C[C@@H](c2nc(-c3ccc4ccc(-c5ccccc5)nc4c3)c3c(N)nccn32)C1 [Linsitinib] (partner 1 µM) into the matching relative viability band.
-- reply HIGH
